experiment: HTB85 osteosarcoma cell growth inhibition, synergistic combos for chromothripsis tumors, BGB or cisplatin IC20 combos (AID 1671453); details: HTB85 osteosarcoma cells, drug combinations, at 0.5 µM, hits give high values;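 further: cells exposed for 96 hours before readout; 0% = vehicle DMSO and 100% = high DMSO killing control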
// reported inhibition for each item listed
reported metric: inhibition (%)

INSERT INTO results (molecule, endpoint_unit, measured_value) VALUES
  ('CN1CCN(c2c(F)cc3c(=O)c(C(=O)O)cn4c3c2OCN4C)CC1', '%', -12.7),
  ('CC1(C(=O)O)CCC2(C)CCC3(C)C(=CC(=O)C4C5(C)CCC(OC(=O)CCC(=O)O)C(C)(C)C5CCC43C)C2C1 (stereo not drawn)', '%', -18),
  ('N=c1ccn2c(n1)O[C@H]1[C@H](O)[C@@H](CO)O[C@H]12', '%', 32.7);
